Where these numbers come from: paper PMC6753678

- System: HepG2 cells
- ASSAY_METHOD_TEXT: HepG2 cytotoxicity assay
- EXPERIMENTAL_CONDITIONS: HepG2 cytotoxicity unified across the three screens
READOUT_LABEL: Unified cytotox (µM)
Just the number please, in µM, no unit attached.

See these solved cases before continuing.
compound="COc1ccc2ccc(OC)c(CNCCCCCCNCc3c(OC)ccc4ccc(OC)cc34)c2c1.CS(=O)(=O)O [TCMDC-137796]" readout_label="Unified cytotox" units=µM recorded_value=3.36
compound="Cl.c1ccc2c(NCCCCCCCCNc3ccnc4ccccc34)ccnc2c1 [TCMDC-137751]" readout_label="Unified cytotox" units=µM recorded_value=2.44

Query string: GET Unified cytotox | system: HepG2 cells | item: CC(Cc1ccc(CNC(=O)NCc2ccc(CC(C)NCCc3cccc(Cl)c3)cc2)cc1)NCCc1cccc(Cl)c1 (centres unmarked) [TCMDC-139648]
Result string: 4.18

Query string: GET Unified cytotox | system: HepG2 cells | item: CNC(=S)NN=C(C)c1ccccn1 [TCMDC-123475]
Result string: 25.00

----------
- System: P. berghei ookinete development
- EXPERIMENTAL_CONDITIONS: primary screen at 1 μM, replicate A
READOUT_LABEL: % inhibition, Replicate A (%)
Just the number please, in %, no unit attached.

See these solved cases before continuing.
compound="Nc1c2ccccc2nc2ccc(Cl)cc12 [TCMDC-132029]" recorded_value=75.70
compound="Cc1[nH]c(C)c(-c2ccc(OCc3ccc(F)cc3)nc2)c(=O)c1Br [TCMDC-135657]" recorded_value=61.60
compound="CNC(=O)c1cc(F)c(F)cc1Nc1nc(Nc2cccc(CS(C)(=O)=O)c2)ncc1Cl.O=CO [TCMDC-134060]" recorded_value=53.04
compound="Cc1[nH]c(C)c(-c2ccc(-c3cccc(Cl)c3)nc2)c(=O)c1Cl [TCMDC-136300]" recorded_value=90.77

Here is another compound to look at.
Query string: Please give measured % inhibition, Replicate A of the following entry: Cc1nc2ccc(-c3ccc(OC(F)(F)F)cc3)cc2c(O)c1C#N [TCMDC-136129]
Result string: 117.05

----------
- Test system: P. falciparum female gametocytes
- ASSAY_METHOD_TEXT: P. falciparum female gametogenesis assay (Pf FGAA)
- EXPERIMENTAL_CONDITIONS: 1: YES; 0: NO
READOUT_LABEL: Is compound selective in assay? Pf FGAA active?

See these solved cases before continuing.
compound="Cc1cccc2nc(-c3ccc(-c4ccc(CNCCN5CCNCC5)cc4)s3)[nH]c12.O=C(O)C(F)(F)F [TCMDC-132870]" recorded_value="0 (0: NO)"
compound="Cc1cc(Nc2ncc(C#N)c(Nc3ccccc3C(N)=O)n2)ccc1N1CCN(C)CC1.Cl [TCMDC-134115]" recorded_value="0 (0: NO)"
compound="Cl.Clc1ccc(CNCCCCCCCNCc2ccc(Cl)c(Cl)c2)cc1Cl [TCMDC-138075]" recorded_value="0 (0: NO)"
compound="Nc1nc(N)c2c(ccc3[nH]c(-c4ccccc4Cl)nc32)n1 [TCMDC-137840]" recorded_value="0 (0: NO)"
compound="Cc1c2ccncc2c(C)c2c1[nH]c1cc(Cc3ccccc3)c(O)cc12 [TCMDC-132053]" recorded_value="0 (0: NO)"
compound="N=C(/N=C(/NCCCCCCN/C(=N/C(=N)NCc1ccc(Cl)c(Cl)c1)N1CCCCC1)N1CCCCC1)NCc1ccc(Cl)c(Cl)c1 [TCMDC-131816]" recorded_value="1 (1: YES)"
compound="COc1ccc(-c2csc3ncnc(Cl)c23)cc1 [TCMDC-123805]" recorded_value="0 (0: NO)"
compound="COc1ccc(Nc2nccc(-c3ccc4ccnc(NCCCCN)c4c3)n2)cc1 [TCMDC-136642]" recorded_value="0 (0: NO)"

Query string: Please give measured Is compound selective in assay? Pf FGAA active? of the following entry: Cc1cc(F)ccc1-c1nc(NCCCNCCc2ccccc2)nc2c1ccc(=O)n2-c1c(F)cccc1F.O=C(O)C(F)(F)F [TCMDC-141804]
Result string: 0 (0: NO)

Query string: Please give measured Is compound selective in assay? Pf FGAA active? of the following entry: CC(C)(C)c1ccc(CN2CCC(CNC(=O)c3cc(-c4ccccc4C(F)(F)F)cs3)C2)cc1.O=C(O)C(F)(F)F (stereo not shown) [TCMDC-134441]
Result string: 1 (1: YES)

----------
- Test system: HepG2 cells
- ASSAY_METHOD_TEXT: HepG2 cytotoxicity assay
- EXPERIMENTAL_CONDITIONS: read-out: HepG2 cytotoxicity assay IC50; dose response confirmation
READOUT_LABEL: IC50 (µM)
Just the number please, in µM, no unit attached.

compound="C=CCOc1ccc(-c2c(C)[nH]c(C)c(Br)c2=O)cc1 [TCMDC-135042]" target_of_assay="HepG2 cells" recorded_value=7.08
compound="Cc1cc(=O)c2cc(-c3ccc(OC(F)(F)F)cc3)ccc2[nH]1 [TCMDC-137042]" target_of_assay="HepG2 cells" recorded_value=100
compound="Cc1[nH]c(C)c(-c2ccc(-c3ccccc3C(F)(F)F)nc2)c(=O)c1Br [TCMDC-135881]" target_of_assay="HepG2 cells" recorded_value=100
compound="Cc1ccccc1-c1cc(=O)c2cc(NC(=O)c3cccs3)ccc2o1 [TCMDC-124947]" target_of_assay="HepG2 cells" recorded_value=100
compound="COc1cc(OC)cc(-c2nn(-c3ccc([N+](=O)[O-])cc3C#N)c(=S)n2Cc2ccco2)c1 [TCMDC-134715]" target_of_assay="HepG2 cells" recorded_value=100
compound="COc1cc(F)c2ncc(Cl)c(CCN3CCC(NCc4ccc5c(c4)NC(=O)CS5)CC3)c2c1.Cl [TCMDC-135620]" target_of_assay="HepG2 cells" recorded_value=10.6
compound="COc1ccc(Cn2c(Nc3cccc(C(F)(F)F)c3)nc3cc(C(=O)NC(C)C)cnc32)cc1Cl [TCMDC-138556]" target_of_assay="HepG2 cells" recorded_value=51.3
compound="COc1ccc(Nc2ncc(C#N)c(Nc3ccccc3C(N)=O)n2)cc1N1CCN(C)CC1.Cl [TCMDC-134117]" target_of_assay="HepG2 cells" recorded_value=8.32

Query string: Please give measured IC50 of the following entry: COc1ccc2ncc(F)c(CCN3CCC(NCc4ccc5c(c4)CCO5)CC3)c2n1.Cl [TCMDC-135491]
Result string: 31.6

Query string: Please give measured IC50 of the following entry: COCCn1c(-c2cccc(Cl)c2)nn(-c2ccc([N+](=O)[O-])cc2C#N)c1=S [TCMDC-134719]
Result string: 100

Query string: Please give measured IC50 of the following entry: COc1ccc2nc3cc(Cl)ccc3c(NCCO)c2c1.Cl [TCMDC-124272]
Result string: 15.7

Query string: Please give measured IC50 of the following entry: CC(C)Cn1ccc2c3c(N)nc(N)nc3ccc21 [TCMDC-137997]
Result string: 0.25

Query string: Please give measured IC50 of the following entry: Cc1[nH]cc(Br)c(=O)c1-c1ccc(Oc2ccccc2)cc1 [TCMDC-136196]
Result string: 100

Query string: Please give measured IC50 of the following entry: CC(C)CCN1CCC(Oc2ccc(NC(=O)c3cccs3)cc2Cl)CC1.O=C(O)C(F)(F)F [TCMDC-133974]
Result string: 21.4

----------
- Tested on: HepG2 cells
- ASSAY_METHOD_TEXT: HepG2 cytotoxicity assay
- EXPERIMENTAL_CONDITIONS: HepG2 cytotoxicity unified across the three screens
READOUT_LABEL: Unified cytotox (µM)
Just the number please, in µM, no unit attached.

compound="FC(F)(F)c1ccc2[nH]c(-c3ccc(-c4cccc(CNCCN5CCNCC5)c4)cc3)nc2c1.O=C(O)C(F)(F)F [TCMDC-132864]" readout_label="Unified cytotox" recorded_value=14.90
compound="CC(C)(C)c1ccc(-c2cc3c(ccc4nc(N)nc(N)c43)[nH]2)cc1 [TCMDC-137977]" readout_label="Unified cytotox" recorded_value=2.56
compound="CCCOc1ccc2ccccc2c1CNCCCCCCNCc1c(OCCC)ccc2ccccc12.CS(=O)(=O)O [TCMDC-137966]" readout_label="Unified cytotox" recorded_value=2.55

Here is another compound to look at.
Query string: Please give measured Unified cytotox of the following entry: Nc1c(Cl)cc(C(O)CNCCCCCOCCCc2ccc(O)c3ncccc23)cc1Cl.O=C(O)/C=C/C(=O)O (stereo not shown) [TCMDC-132088]
Result string: 6.14

----------
Entries and their measured % inhibition, Replicate B follow.
- System: P. berghei ookinete development
- EXPERIMENTAL_CONDITIONS: primary screen at 1 μM, replicate B
Answer with the figure and its unit, nothing else.

See these solved cases before continuing.
structure_notation=Cc1noc(C)c1-c1cccc(CNCc2ccc(-c3ccc(-c4nc5cccc(C)c5[nH]4)cc3)cc2)c1.O=C(O)C(F)(F)F target_of_assay="P. berghei ookinete development" recorded_value=37.24%
structure_notation=CC(=O)Oc1c(Br)c(C)nc(C)c1-c1ccc(Oc2ccc(OC(F)(F)F)cc2)cc1 target_of_assay="P. berghei ookinete development" recorded_value=79.70%
structure_notation=Br.CCc1ccccc1OCCCON1C(=N)N=C(N)NC1(C)C target_of_assay="P. berghei ookinete development" recorded_value=46.89%

Query string: GET % inhibition, Replicate B | system: P. berghei ookinete development | item: C=CCOc1ccc(-c2c(C)[nH]c(C)c(Br)c2=O)cc1
Result string: 107.55%

Query string: GET % inhibition, Replicate B | system: P. berghei ookinete development | item: COc1cc(-c2nc(C(C)(C)CN)[nH]c2-c2ccncc2)ccc1Br.Cl
Result string: 38.48%

Query string: GET % inhibition, Replicate B | system: P. berghei ookinete development | item: COc1ccc2nc3cc(Cl)ccc3c(NCCCN3CCNCC3)c2c1.Cl
Result string: 35.84%

Query string: GET % inhibition, Replicate B | system: P. berghei ookinete development | item: Cc1[nH]c(C)c(-c2ccc(-c3ccc(OC(F)(F)F)cc3)cc2)c(=O)c1Br
Result string: 103.66%

Query string: GET % inhibition, Replicate B | system: P. berghei ookinete development | item: Cc1ccc(Nc2nc(N/N=C/c3cccc(O)c3)nc(Nc3ccc([N+](=O)[O-])cc3)n2)cc1C
Result string: 54.76%
